Entry source: ChEMBL document CHEMBL1154345

Assay: in vitro
Details: human, microsomes
Description: Metabolic stability in human liver microsomes assessed as compound remaining after 60 mins at 1 uM
property-label: remaining at 1 h, 1 µM (%)

CS(=O)(=O)Nc1ccc2c(c1)S(=O)(=O)NC(C1=C(O)[C@@H]3[C@@H]4CC[C@@H](C4)[C@@H]3N(Cc3cccc(F)c3)C1=O)=N2 = 96
CS(=O)(=O)Nc1ccc2c(c1)S(=O)(=O)N=C(C1=C(O)[C@@H]3C4CCC(CC4)[C@@H]3N(Cc3ccc(F)cc3)C1=O)N2 = 86
CS(=O)(=O)Nc1ccc2c(c1)S(=O)(=O)N=C(C1=C(O)C3C4CCC(C4)C3N(Cc3ccc(F)cc3)C1=O)N2 (racemic; 2b) = 73
CS(=O)(=O)Nc1ccc2c(c1)S(=O)(=O)N=C(C1=C(O)[C@@H]3[C@H]4CC[C@H](C4)[C@@H]3N(Cc3ccc(F)cc3F)C1=O)N2 = 100
CS(=O)(=O)Nc1ccc2c(c1)S(=O)(=O)N=C(C1=C(O)[C@@H]3C4CCC(CC4)[C@@H]3N(Cc3cccc(F)c3)C1=O)N2 = 88
CS(=O)(=O)Nc1ccc2c(c1)S(=O)(=O)N=C(C1=C(O)[C@@H]3[C@H]4CC[C@H](C4)[C@@H]3N(Cc3cccs3)C1=O)N2 = 81
